Assay: First-in-man single-dose escalation study, plasma PK
Type: in vivo
Settings: both sexes, human, po, 50 ug, 50 μg single oral solution dose, mean, n = 6, healthy subjects, read-out: AUCinf
Experimental: The first-in-man study was a randomized, double-blind, placebo-controlled, single-dose escalation study with healthy female and male subjects aged 18-44 years. […] Frequent blood samples were taken through an intravenous cannula for the assessment of the concentration of tasipimidine and its metabolite 1 in plasma. […] The PK parameters were calculated from the plasma concentration-time data by noncompartmental method using the commercial Phoenix WinNonlin software version 8.3.
Parameter: AUC(0-inf) (ng·h/mL)
Quick reminder: number only, in ng·h/mL, skip the unit.

Please fill in: AUC(0-inf) reported for COc1cccc2c1CCOC2C1=NCCN1 (stereo not shown) = 0.36
